Each item that follows carries a reported inhibition.
Target: Dual specificity protein kinase CLK3 (Homo sapiens) (UniProt P49761);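 further: each value is the mean inhibition of CLK3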
Sequence (P49761 whole entry, looked up): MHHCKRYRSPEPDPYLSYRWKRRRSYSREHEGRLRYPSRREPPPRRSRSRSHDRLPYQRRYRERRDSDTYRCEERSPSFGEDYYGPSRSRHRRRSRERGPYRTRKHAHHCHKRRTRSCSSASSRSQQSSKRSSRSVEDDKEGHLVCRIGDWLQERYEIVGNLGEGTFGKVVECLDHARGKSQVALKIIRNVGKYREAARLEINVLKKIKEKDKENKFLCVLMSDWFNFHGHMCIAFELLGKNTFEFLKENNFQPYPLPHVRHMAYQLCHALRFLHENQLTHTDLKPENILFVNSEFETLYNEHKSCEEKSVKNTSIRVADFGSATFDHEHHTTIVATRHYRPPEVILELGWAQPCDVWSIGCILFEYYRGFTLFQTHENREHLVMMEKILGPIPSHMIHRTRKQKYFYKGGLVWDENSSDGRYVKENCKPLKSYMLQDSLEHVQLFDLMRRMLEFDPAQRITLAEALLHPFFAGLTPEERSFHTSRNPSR
Conditions: at 1 µM
Enter your answer as a number in %; do not include the unit.

INSERT INTO measurements (substance_smiles, reading) VALUES
  ('CC1(C)CC(n2cnc(-c3ccc(F)cc3)c2-c2ccnc(N)n2)CC(C)(C)N1', 1.38),
  ('Cc1ccc(-c2cc3c(NC(=O)C4CC4)ncnc3o2)cc1', 7.45),
  ('O=C(O[C@H]1CN[C@H](C#Cc2cc3ncnc(Nc4ccc5c(cnn5Cc5ccccc5)c4)c3s2)C1)N1CCOCC1', -0.49),
  ('OCCCNc1nccc(-c2c(-c3ccc(F)cc3)nn3cc(C(F)(F)F)ccc23)n1', 0.7),
  ('COc1cc(N2CCN(C(C)C)CC2)ccc1Nc1nc(Nc2cccc(F)c2C(=O)O)c2cc[nH]c2n1', 7.82);

Retrieve inhibition on Dual specificity protein kinase CLK3 (Homo sapiens) (UniProt P49761); query `COc1cc(N2CCN(C(C)C)CC2)ccc1Nc1nc(Nc2cccc3ncccc23)c2cc[nH]c2n1`
1.89

Retrieve inhibition on Dual specificity protein kinase CLK3 (Homo sapiens) (UniProt P49761); query `c1cnn2ncc(-c3ccnc(NCCCN4CCOCC4)n3)c2c1`
0.72

Retrieve inhibition on Dual specificity protein kinase CLK3 (Homo sapiens) (UniProt P49761); query `CS(=O)(=O)Nc1ccc(-c2ccc3c(NC(=O)C4CC4)n[nH]c3c2)cc1`
4.08

====

Molecular target: Rho-associated protein kinase 2 (Homo sapiens) (UniProt O75116);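 further: values are averaged inhibition readings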
Sequence (O75116 whole entry, looked up): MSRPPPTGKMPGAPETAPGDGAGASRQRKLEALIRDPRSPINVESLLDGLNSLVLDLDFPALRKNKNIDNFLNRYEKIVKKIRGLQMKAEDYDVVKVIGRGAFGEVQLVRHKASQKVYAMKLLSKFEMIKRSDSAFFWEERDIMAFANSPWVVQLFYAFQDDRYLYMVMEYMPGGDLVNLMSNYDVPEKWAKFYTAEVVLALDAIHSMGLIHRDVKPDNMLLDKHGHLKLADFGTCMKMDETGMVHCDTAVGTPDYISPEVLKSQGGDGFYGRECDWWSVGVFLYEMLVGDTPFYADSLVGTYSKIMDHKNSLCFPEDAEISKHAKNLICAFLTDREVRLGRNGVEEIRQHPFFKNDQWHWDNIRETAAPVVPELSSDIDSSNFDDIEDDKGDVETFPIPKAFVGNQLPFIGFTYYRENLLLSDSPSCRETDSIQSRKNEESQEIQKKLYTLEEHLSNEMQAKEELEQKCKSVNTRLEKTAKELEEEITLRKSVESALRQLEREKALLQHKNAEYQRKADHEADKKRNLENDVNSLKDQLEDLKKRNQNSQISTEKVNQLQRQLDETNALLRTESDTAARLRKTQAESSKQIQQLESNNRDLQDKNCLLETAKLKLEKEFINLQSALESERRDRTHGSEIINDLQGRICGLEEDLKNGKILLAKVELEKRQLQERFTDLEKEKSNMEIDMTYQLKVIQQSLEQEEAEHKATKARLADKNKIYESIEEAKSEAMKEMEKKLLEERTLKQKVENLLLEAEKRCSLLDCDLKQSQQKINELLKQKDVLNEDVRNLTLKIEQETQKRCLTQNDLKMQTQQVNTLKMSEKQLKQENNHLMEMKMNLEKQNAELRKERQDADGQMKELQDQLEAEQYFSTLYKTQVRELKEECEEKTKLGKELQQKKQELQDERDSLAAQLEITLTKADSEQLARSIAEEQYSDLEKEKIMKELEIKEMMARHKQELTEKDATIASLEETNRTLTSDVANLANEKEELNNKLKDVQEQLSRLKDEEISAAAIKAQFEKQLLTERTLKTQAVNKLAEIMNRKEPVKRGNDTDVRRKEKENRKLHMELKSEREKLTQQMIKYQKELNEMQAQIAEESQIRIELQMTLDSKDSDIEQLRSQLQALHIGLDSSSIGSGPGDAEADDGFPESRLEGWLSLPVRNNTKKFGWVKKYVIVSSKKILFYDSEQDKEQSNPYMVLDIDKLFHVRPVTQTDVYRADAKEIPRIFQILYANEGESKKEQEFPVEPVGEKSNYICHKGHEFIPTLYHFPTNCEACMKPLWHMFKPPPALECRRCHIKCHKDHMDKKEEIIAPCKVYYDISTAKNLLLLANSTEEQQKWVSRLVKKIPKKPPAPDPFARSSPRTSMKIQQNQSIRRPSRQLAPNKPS
Conditions: at 0.1 µM
Each item that follows carries a reported inhibition.
Enter your answer as a number in %; do not include the unit.

Consider the worked cases shown below.
INSERT INTO assay_data (substance_smiles, measure_unit, reading) VALUES
  ('Cc1cc(O)cc(C)c1/C=C/c1cncc(C(N)=O)c1', '%', 3.18),
  ('O=C(O[C@H]1CN[C@H](C#Cc2cc3ncnc(Nc4ccc5c(cnn5Cc5ccccc5)c4)c3s2)C1)N1CCOCC1', '%', -1.02);

Could you now consider this next molecule?
In one line, give reported inhibition of the entry `Fc1cccc(COc2ccc(Nc3ncncc3C#Cc3ccccc3)cc2Cl)c1` .
3.76

====

Target: Serine/threonine-protein kinase 26 (Homo sapiens)
Details: at 0.1 µM
Description: GSK_PKIS: MST4 mean inhibition at 0.1 uM [Nanosyn]
Each item that follows carries a reported inhibition.
Enter your answer as a number in %; do not include the unit.

Consider the worked cases shown below.
INSERT INTO results (compound, readout_type, reading) VALUES
  ('O=C1Nc2ccccc2/C1=C1\CCc2cc(O)ccc21', 'inhibition', -4.52),
  ('CS(=O)(=O)CCNCc1ccoc1-c1ccc2ncnc(Nc3ccc(OCc4ccccc4)cc3)c2c1', 'inhibition', -1.84),
  ('CN(c1ccc(NC(=O)NCCN2CCOCC2)cc1)c1ccnc(Nc2ccc(CS(C)(=O)=O)cc2)n1', 'inhibition', -1.2),
  ('CC1=C(C(=O)Nc2ccc3[nH]nc(C)c3c2)C(c2ccc(C(F)(F)F)cc2)CC(=O)N1 (stereo unspecified)', 'inhibition', -1.47),
  ('FC(F)(F)CNc1nccc(-c2cnn3ncccc23)n1', 'inhibition', -0.96),
  ('c1ccc(-c2n[nH]cc2-c2ccnc(-c3ccc(OCCn4ccnc4)cc3)c2)nc1', 'inhibition', -1.3);

In one line, give reported inhibition of the entry `COc1cccc(Nc2nccc(-c3cnn4ncccc34)n2)c1` .
1.55

In one line, give reported inhibition of the entry `COc1cc(Nc2ncc(-c3ccccc3)o2)cc(OC)c1` .
-1.04

In one line, give reported inhibition of the entry `CNC(=O)c1cncc(/C=C/c2ccccc2C)c1` .
1.02

In one line, give reported inhibition of the entry `N#Cc1ccc2c(-c3ccnc(NC4CC4)n3)c(-c3ccc(F)cc3)nn2c1` .
-1.26

In one line, give reported inhibition of the entry `CCN1CCC(C(=O)Nc2n[nH]c3nnc(-c4cccc(F)c4F)cc23)CC1` .
0.52
